Test: Inhibition of ovine 5-lox by EIA
Design: species or system Ovis aries
propertyLabel: IC50 (nM)

>  <inputSmiles>
CC(C)=CCC/C(C)=C/Cc1c(O)cc(O)c(C(=O)C(C)C)c1O

>  <propertyLabel>
IC50

>  <recordedMeasurement>
2200

$$$$

* * *

Biological target: Prostaglandin G/H synthase 2 (Homo sapiens)
Experiment: Inhibition of human COX2 at 10 uM using arachidonic acid as substrate measured for 300 secs intervals from 3 to 10 secs in presence of hematin by fluorescence assay relative to control

>  <inputSmiles>
COc1cc(OC(C)=O)c2c(c1)O[C@H](OC(C)=O)[C@]1(Cc3cc4c(cc31)COC4)C2=O

>  <valueUnits>
%

>  <inhibition>
89

$$$$
>  <inputSmiles>
COc1cc(OC(C)=O)c2c(c1)O[C@H](OC(C)=O)[C@@]1(Cc3cc4c(cc31)COC4)C2=O

>  <valueUnits>
%

>  <inhibition>
20.9

$$$$
>  <inputSmiles>
COc1cc(OC)c(C(=O)CCc2ccc(O)cc2)c(OC)c1

>  <valueUnits>
%

>  <inhibition>
54.4

$$$$

* * *

Molecular target: Prostaglandin G/H synthase 2 (Ovis aries, UniProt P79208)
Test: Inhibition of recombinant ovine COX2 using arachidonic acid as substrate preincubated for 15 mins followed by arachidonic acid addition measured after 2 mins by ELISA
pIC50: −log10 of the molar value.
The entries below are paired with their reported pIC50.

>  <inputSmiles>
COc1cc(O[C@@H]2O[C@H](CO)[C@@H](O)[C@H](O)[C@H]2O[C@@H]2OC[C@](O)(COC(=O)c3ccc(O)c(O)c3)[C@H]2O)ccc1O

>  <pIC50>
4.53

$$$$
>  <inputSmiles>
CC(=O)OC[C@H]1O[C@@H](OCCc2ccc(O)c(O)c2)[C@H](O)[C@@H](O[C@@H]2O[C@@H](C)[C@H](O)[C@@H](O)[C@H]2O)[C@@H]1OC(=O)/C=C/c1ccc(O)c(O)c1

>  <pIC50>
5.03

$$$$
>  <inputSmiles>
C[C@@H]1O[C@@H](O[C@@H]2[C@@H](O)[C@H](OCCc3ccc(O)cc3)O[C@H](CO)[C@H]2OC(=O)/C=C/c2ccc(O)c(O)c2)[C@H](O)[C@H](O[C@@H]2OC[C@](O)(CO)[C@H]2O)[C@H]1O

>  <pIC50>
4.44

$$$$
>  <inputSmiles>
CC(=O)OC[C@H]1O[C@@H](OCCc2ccc(O)c(O)c2)[C@H](O)[C@@H](O[C@@H]2O[C@@H](C)[C@H](O)[C@@H](O[C@@H]3OC[C@](O)(CO)[C@H]3O)[C@H]2O)[C@@H]1OC(=O)/C=C/c1ccc(O)c(O)c1

>  <pIC50>
4.71

$$$$
>  <inputSmiles>
O=C(OC[C@@]1(O)CO[C@@H](O[C@H]2[C@H](Oc3ccc(O)c(O)c3)O[C@H](CO)[C@@H](O)[C@@H]2O)[C@@H]1O)c1ccc(O)c(O)c1

>  <pIC50>
4.61

$$$$

* * *

Target: Prostaglandin G/H synthase 2 (Ovis aries, UniProt P79208)
Sequence (P79208 whole entry): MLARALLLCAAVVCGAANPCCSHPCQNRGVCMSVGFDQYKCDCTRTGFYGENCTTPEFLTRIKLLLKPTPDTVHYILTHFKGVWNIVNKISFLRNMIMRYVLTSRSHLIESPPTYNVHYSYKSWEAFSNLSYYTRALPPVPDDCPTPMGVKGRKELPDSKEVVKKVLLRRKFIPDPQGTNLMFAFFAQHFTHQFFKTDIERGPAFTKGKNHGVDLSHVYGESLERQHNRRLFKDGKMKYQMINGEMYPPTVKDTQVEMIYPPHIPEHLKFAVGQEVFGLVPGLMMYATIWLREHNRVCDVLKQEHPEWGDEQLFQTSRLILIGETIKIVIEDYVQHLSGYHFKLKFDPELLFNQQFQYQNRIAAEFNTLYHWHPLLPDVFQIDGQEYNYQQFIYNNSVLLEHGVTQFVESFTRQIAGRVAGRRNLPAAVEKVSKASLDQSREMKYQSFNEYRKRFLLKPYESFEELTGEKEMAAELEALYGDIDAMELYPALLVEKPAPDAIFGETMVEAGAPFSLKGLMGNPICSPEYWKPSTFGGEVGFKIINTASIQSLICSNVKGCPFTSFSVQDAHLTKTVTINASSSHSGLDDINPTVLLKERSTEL
Experiment: Inhibition of ovine COX2 using arachidonic acid as substrate by enzyme immunoassay
propertyLabel: IC50 (µM)

>  <inputSmiles>
CCOC(=O)[C@H](CO)NC(=O)c1cccc(O)c1O

>  <targetDesc>
Prostaglandin G/H synthase 2 (Ovis aries, UniProt P79208)

>  <propertyLabel>
IC50

>  <recordedMeasurement>
2.8

$$$$
